target: BLM642-1290 (UniProt P54132 642-1290); test: fluorescence anisotropy
Sequence (P54132 642-1290): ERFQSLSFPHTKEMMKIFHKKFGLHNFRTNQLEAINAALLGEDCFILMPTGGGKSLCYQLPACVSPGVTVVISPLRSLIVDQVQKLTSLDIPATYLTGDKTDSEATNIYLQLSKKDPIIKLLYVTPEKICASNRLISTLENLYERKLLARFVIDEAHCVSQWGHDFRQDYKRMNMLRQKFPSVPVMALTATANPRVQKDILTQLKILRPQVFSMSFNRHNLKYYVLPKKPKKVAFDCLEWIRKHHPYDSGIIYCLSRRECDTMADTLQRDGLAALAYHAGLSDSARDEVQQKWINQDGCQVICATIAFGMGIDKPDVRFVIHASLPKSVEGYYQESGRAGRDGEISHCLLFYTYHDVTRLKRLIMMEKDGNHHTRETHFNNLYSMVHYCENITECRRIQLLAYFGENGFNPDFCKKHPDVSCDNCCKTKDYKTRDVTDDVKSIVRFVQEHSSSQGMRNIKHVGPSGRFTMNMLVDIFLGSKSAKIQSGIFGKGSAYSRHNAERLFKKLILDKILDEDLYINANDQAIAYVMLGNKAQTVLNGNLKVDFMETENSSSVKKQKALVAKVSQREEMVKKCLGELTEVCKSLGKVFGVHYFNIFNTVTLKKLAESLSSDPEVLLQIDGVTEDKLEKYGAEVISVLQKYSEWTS
pKd: −log10 of the molar value.
observable: pKd

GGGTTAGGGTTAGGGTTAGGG (ssDNA) [oligonucleotide D (21-mer)] = 8.95
